biological target: T1, soluble human insulin receptor-immunoglobulin heavy chain chimera (sIR-Fc; Bass et al., 1996) (human, UniProt P06213 28-956, limits assumed); experiment: phage ELISA
T1 construct: extracellular domain; also called soluble IR (Bass construct); not shown: immunoglobulin heavy chain constant domains
parameter-measured: IR/IGF-1R comparison
Lab note: write the figure by itself, no unit.

Solved cases below.
| binder | parameter-measured | value-reported |
| --- | --- | --- |
| QSPVGSSHEDFYDWFFRQVAQSGAHQ [H2CA-3-D6-IGFR] | IR/IGF-1R comparison | 0.3 |
| MMVVDGFYDALHQLVVAQSLG [20E2A-3-D10-IGFR] | IR/IGF-1R comparison | 0.3 |
| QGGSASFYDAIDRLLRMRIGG [20E2A-4-F11-IGFR] | IR/IGF-1R comparison | 0.1 |
| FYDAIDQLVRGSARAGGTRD [R20α-3-20E2-IR] | IR/IGF-1R comparison | 0.1 |
| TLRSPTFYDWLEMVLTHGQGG [20E2B-1-A8-IGFR] | IR/IGF-1R comparison | 0.2 |
| RLFYCGIQALGANLGYSGCV [R20α-4-20A12-IR] | IR/IGF-1R comparison | 0.1 |

Moving on to the next binder.
The binder listed as LSVALSFYDALGQLVAGEGRW [20E2A-3-A12-IGFR] shows IR/IGF-1R comparison equal to 0.3
